Where do these numbers come from? They come from the nanobody polyreactivity screen of Harvey et al. (2022).

assay: yeast display, Sf9 membrane polyspecificity reagent, FACS + sequencing; frameworks hold sequencing errors
Experimental readout: polyreactivity (PSR sort gate)

| Monomer sequence | Measurement |
| --- | --- |
| QVQLVESGGGLVQAGGSLRLSCAASGGTFYLNAMGWYRQAAGKERELVAGISWGGGRTYYADSVKGRFTISRDNAKNTVYLQMNSLKPEDTAVYYCAAGAWRGPYSGYYYWGQGTQVTVSS | low polyreactivity |
| QVQLVESGGGLVQAGGSLRLSCAASGRIIYTNALGWYRQAPGKERELVAAINRSGGITYYADSVKGRFTISRDNAKNTVYLQMNSLKPEDTAVYYCAKDYSWASYNHDYWGQGTQVTVSS | low polyreactivity |

---

assay: yeast display, Sf9 membrane polyspecificity reagent, FACS + sequencing; frameworks hold sequencing errors
Experimental readout: polyreactivity (PSR sort gate)

// known answers, use as guide
| Monomer sequence | Measurement |
| --- | --- |
| QVQLVESGGGLVQAGGSLRLSCAASRNIFDTYVMGWYRQAPGKETELVAANTSDGGTYYADSVKGRFTISRDNAKNTVFFQMNSLKPVDTAVYSCAADTYYYPIHDYWGQGTQVTVSS | low polyreactivity |
| QVQLVESGGGLVQAGGSLRLSCAASGSIFYSYAMGWYRQAPGKERELVAAISYSSGSTYYADSVKGRFTISRDNAKNTVYLQMNSLKPEDTAVYYCAAEGNGWQVDVTEVGEYDSWGQGTQVTVSS | high polyreactivity |
| QVQLVESGVGLVQAGGSLRLSSAASGFTFVSNDMGWYRQAPGKERELVAAIRYRGGDTYYADSVKGRFTISRDNAKNTVYLQMNSMKPEDTAVYYCAVDVATYTAGWYYHGYDYWGQGTQVTVSS | low polyreactivity |
| QVQLVESGGGLVQAGGSLRLSCAASGFTFGGYAMGWYRQAPGKEREMVAGISGSGGRTYYADSVKGRFTISRDNAKNTVYLQMNSLKPEDTAVYYCGADRASPYLEYYWGLGTQVTVSS | low polyreactivity |

Exercise: # query: polyreactivity (PSR sort gate) of entry `QVQLVESGGGLVQAGGSLRLSCAASGRTFYRNTMGWYRQAPGKERELVAAITRSGGSTYYADSVKGRVTISRDNAKNTVYLQMNSLKPEDTAVYYCAASRTYYAPYGYWGQGTQVTVSS`
Key: high polyreactivity

---

assay: yeast display, Sf9 membrane polyspecificity reagent, FACS + sequencing; frameworks hold sequencing errors
Experimental readout: polyreactivity (PSR sort gate)

| Monomer sequence | polyreactivity (PSR sort gate) |
| --- | --- |
| QVQLVESGGGLVQAGGSLRLSCAASGSTFSDYAMGWYRQAPGKERELVAGITETGTTTYYADSVKGRFTISRDNAKNTVYLQMNSLKPEDTAVYYCAAYVVTYYYGTGYYSYDYWGQGTQVNVSS | low polyreactivity |
| QVQLVESGGGLVQAGGSLRLSCAASGRIFGLYAMGWYRQAPGKERELVAAINRTGNTNYADSVKGRFTISRDNAKNTVYLQMNSLKPEDTAVYYCAARFPYWRRYDYWGQGTQVTVSS | high polyreactivity |
| QVQLQESCGRLVQAGGILRLSCAACGNIFPSAVMGWYRQALGTEREFVATLNSGSNPYYADSVKGRFTISRDNAKNTVYLQLNSLKLEDTAVYYCAAYYKLPAWHTYWGQGTQVTVSS | low polyreactivity |
| QVQLVESGGGLVQAGGSLRLSSAASGRTFEVYAMGWYRQAPGKERELVATITYSGGITYYADSVKGRFTISRDNAKNTVYLQMNSLKPEDTAVYYPIGVGGDYDYWGQGTQVTVSS | low polyreactivity |
| QVQLVESGGGLVQAGGSLRLSCAASGRTFRRYAMGWYRQAPGKERELVAAISRSGGSTSYADSVKGRFTISRDNAKNTVYLQMKSLKPEDTAVYYCAVEVASYDRRPSEYYWGQGTQVTVSS | high polyreactivity |
| QVQLVESGGVLDQAGRSLRLSCAASGRTFNRYAMGWYRQAPGKERDLVAAISSSGGSTYYADSVKGRFTISRDNAKNTVYLQMNSLKPEDTAVYYCNKGQYSHLNSYGDDYWGQGTQVTVSS | high polyreactivity |
| QVQLVESGGGLVQAGGSLRLSCAASGRTFIYNVMGWYRQAPGKERELVASIRSSGGSTYYADSVKGRFTISRDNAKNSVYLQMNSLKPEDTAVYYCAADRSPGIRCWPGDYWGQGTQVTVSS | low polyreactivity |
| QVQLVESGGGLVQAGGSLRLSCAASGLILTWNAMGWYRQAPGKERELVAAISRSDGITYYADSVKGRFTISRDTAKNTVYIQMNSLKPEDTAVYYCAKDGVPKGRGGAYYEYDYWGQGTQVTVSS | low polyreactivity |
| QVQLVESGGGLVQAGGSLRLSCAASGFTFGSNTMGWYRQAPGKERELVAVITWSGGSTYYADSVKGRFTISRDYAKNTVYLQMNSLKPEDTAVYSCAAEATSPLTWFDYWGQGTQVTVSS | low polyreactivity |
| QVQLVESGGGLVQAGGSLRISCAASGRTFSGNAMGWYRQAPGKERELVAAISSGGSTNYADSVKGRFTISRDNAKNTVYLQMNSLKPEDTAVYFCARDAYLPRIADGDGRYELVDYWGHGTQVTVSS | low polyreactivity |

Here is the next item to consider.
Exercise: Field request: polyreactivity (PSR sort gate) | item: `QVQLVESGGCIVQAGGSLRLSCAASGLNLDGYAMGWYRQAPGKERELVAAITRSGGRTYYADSVKGRFTISRDNANNTVYLQMNSLKPEDTAVYYCAALGWSVRYRYDYWGQGTQVTVSS`
Key: high polyreactivity

---

test: yeast display, Sf9 membrane polyspecificity reagent, FACS + sequencing; frameworks hold sequencing errors
Experimental readout: polyreactivity (PSR sort gate)

Known polyreactivity (PSR sort gate) results, listed for orientation:
| Monomer sequence | polyreactivity (PSR sort gate) |
| --- | --- |
| QVQLVESGGGLVQAGGSLRLSCAASGSTFRWYAMGWSRQAPGKERELVAAIRRIGSRTYADSVKGRFTISRDNAKNTVYLQMNSLKPEDTAVYYCATRYKYTGYDYWGQGTQVTVSS | high polyreactivity |
| QVHLVESGGGLVQAGGSLRLSCAASGRTFWSYAMGWYRQAPGKERELVAAISWRSGTTYYADSVKGRFTISRDNAKNTVYLQMNSLKPEDTAVYYCNAHSNYRGDYWGQGTQVTVSS | high polyreactivity |
| QVQLVESGGGLVQAGGSLRLSCAASGFILGYNAMGWYRQAPGKERELVADITFSGGGTNYADSVKGRFTISRDNAKNSVYLQMNSLKPEDTAVYYCNAAAFSQLRVRYDYWGQGTQVTVSS | low polyreactivity |
| QVQLVESGGGLVQAGGSLRLSCAASGFTFFVNTMGWYRQAPGKERELVAAISYDGGSTTYADSVKGRFTISRDNAKNTVYLQMNSLKPEDTAVYYCAAEYWAPFDYGTNSGYEYWGQGTQVTVSS | low polyreactivity |
| QVQLVESGRGIVQAGGSLRLSCAASGSTLNDYAMGSSRPAPGKERELVAAINGSGGSTYYADSVKGRFTISRDNAKNTVYLQMNSLKPEDTAVYYCAAATTHRRRYGYWGQGTQVTVSS | low polyreactivity |
| QVQLVESGGGLVQAGGSLRLSCAASGRIFSRYAMGWYRQAPGKEREMVAAIRSNGGRTYYADSVKGRFTISRDNAKNTVYLQMNSLKPEDTAVYYCAAAGGGKVSYRDYDYWGQGTQVTVSS | high polyreactivity |
| QVQLVESGGGLVQAGRSLRLSCAASGITFQYYAMGGYRQAPGKERELVAAISSGGSTYYADSVKGRFTISRDNAKNTVYLQMNSLKPEDTAVYYCAAKRVFFGLNYDYWGQGTQVTVSS | high polyreactivity |
| QVQLVESGGGLVQAGGSLRLSCAASGRIFGLYAMGWYRQAPGKERELVAAISRGGGSTYYADSVKGRFTISRDNAKNTVYLQMNSLKPEDTAVYYCATGLGYFSRLDYWGQGTQVTVSS | low polyreactivity |

Exercise: Which polyreactivity (PSR sort gate) is reported for this sequence? `QVQLVESGGGLVQAGGSLRLSCAASGFIFYQYAMGWYRQAPGKERELVAAISRRGGGTYYADSVKGRFTISRDNAKNTVYLQMNSLKPEDTAVYYCNTDRLARITFGGYDYWGQGTQVTVSS`
Key: high polyreactivity

Exercise: So what does the record say about polyreactivity (PSR sort gate) for `QVQLVESGGGLVQAGGSLPLSCAASGNTFYNYAMGWYRQAPGKERELVAAISLSGGSTYYADSVKGRFTISRDNAKNTVYLQMNSLKPEDTAVYYCAADIFYYSSSYGYWGQGTQVTVSS` ?
Key: low polyreactivity

Exercise: Please look up its polyreactivity (PSR sort gate): `QVQLVESGGGIVQAGGSLRLSCAASGGTFTRYAMGWYRQAPGKEREFVAAISGSGGSTYYADSVKGRFTISRDNAKNTVYLQMNSLKPVDTAVYYCNKVPVYPPSYYWGQGTQVTVSS`
Key: low polyreactivity
